Assay: qHTS of pediatric cancer cell lines to identify multiple opportunities for drug repurposing: Primary screen for SK-N-MC cells (AID 1347093)
Conditions: SK-N-MC viability, CellTiter-Glo luminescence, 48 h; series mostly up to 46 µM
Inconclusive results are not listed. Calls of active or inactive are those of the source. Calls come from the whole dose curve; as a rule, active = well fitted cell-killing curve with a large enough effect; inconclusive = small, poorly fitted or top-dose-only effect; inactive = no such curve, though single readings can be large or run the other way.
I would appreciate it if you answered using one of these outcomes: active, inactive

Worked examples follow.
CC(C)C[C@H](CC(=O)O)C(=O)N[C@@H](Cc1c[nH]c2ccccc12)C(=O)N[C@@H](C)c1ccccc1; active
COc1ccc(-c2coc3cc(O)cc(O)c3c2=O)cc1; active
CNC1CCC(N(Cc2cccc(-c3ccncc3)c2)C(=O)c2sc3c(F)ccc(F)c3c2Cl)CC1 (stereo unspecified); active
CCN(CC)CCOc1ccc(C(=C(Cl)c2ccccc2)c2ccccc2)cc1; active
COCCCCC(=NOCCN)c1ccc(C(F)(F)F)cc1; active
c1ccc2c(Cc3c[nH]c4ccccc34)c[nH]c2c1; active
CCN1CCC[C@H]1CNC(=O)c1cc(S(N)(=O)=O)ccc1OC; inactive
O=c1[nH]cnc2c1ncn2[C@H]1CC[C@@H](CO)O1; active

[in] Would you mind telling me which call this test gave `NC(=O)NN=Cc1ccc([N+](=O)[O-])o1` ?
[out] inactive

[in] What did this assay record as the result for `COc1cc2ncnc(-n3nc(-c4ccccn4)nc3N)c2cc1OC` ?
[out] active

[in] Can you look up the reported call for C[C@]12CCC3c4ccc(O)cc4CCC3C1CCC2=O (stereo partly specified) for me?
[out] inactive
